What follows is literature data on IC50 for ASK1 (Homo sapiens (Human), UniProt Q99683).

Known results for compounds:
Cn1ccc(-c2ccc3c(c2)C(=O)N(c2cccc(-c4nncn4C4CC4)n2)C3)n1    < 200 nM
CC(C)CS(=O)(=O)N1CCc2cnc(C(=O)Nc3cccc(-c4nnnn4[C@H](C)CO)n3)cc2C1    1 to 10 nM
O=C1c2sccc2CN1c1cccc(-c2nncn2C2CC2)n1    < 1000 nM
CC(C)n1nnnc1-c1cccc(NC(=O)c2cc(-c3cnn(C4CC4)c3)ccn2)n1    10 to 100 nM
CCNC(=O)N1CCc2cc(F)c(C(=O)Nc3cccc(-c4nncn4C(C)C)n3)cc2C1    1 to 10 nM

# batch size: 3; output IC50 per entry
1. CCN1CCc2cnc(C(=O)Nc3cccc(-c4nnnn4[C@H](C)CO)n3)cc2C1
2. CC(C)n1cnnc1-c1cccc(NC(=O)c2ccc3cc(N4CCOCC4)cnc3c2)n1
3. Cc1cc(F)c(C(=O)Nc2cccc3c2OC[C@@H](CO)n2nnnc2-3)cc1-n1cnc(C2CC2)c1

Return:
1. 10 to 100 nM
2. 10 to 100 nM
3. 10.9 nM

---

What follows is literature data on pIC50 for ASK1 (Homo sapiens (Human), UniProt Q99683).
pIC50: −log10 of the molar value.

Cc1cc(F)c(C(=O)Nc2cccc(-c3nnnn3[C@H](C)CO)n2)cc1-c1ccn(C(C)C)n1    7.00 to 8.00
O=C(c1cc2c(cc1Cl)C(=O)N(c1cccc(-c3nncn3C3CC3)n1)C2)N1CCOCC1    > 6.70
CC(C)n1nnnc1-c1cccc(NC(=O)c2cc(-c3cnn(C4CC4)c3)c(N3CCN(C)CC3)cn2)n1    8.00 to 9.00
Cc1cc(F)c(C(=O)Nc2cccc(-c3nnnn3[C@H](C)CO)n2)cc1-c1cnn(C2CC2)c1    8.00 to 9.00
Cc1cccc(-c2c[nH]c(C(=O)Nc3cccc(-c4nncn4C(C)C)n3)c2)c1    8.40
C[C@H](CO)n1nnnc1-c1cccc(NC(=O)c2cc3c(cc2F)CCN(S(=O)(=O)c2ccc(F)cc2)C3)n1    7.00 to 8.00
CC(C)n1nnnc1-c1cccc(NC(=O)c2cc3c(cn2)CCN(C(=O)C2CCCC2)C3)n1    8.00 to 9.00
CCOC(=O)N1CCc2cc(OC)c(C(=O)Nc3cccc(-c4nncn4C(C)C)n3)cc2C1    8.00 to 8.90

# batch size: 8; output pIC50 per entry
1. Cc1cnc(C(=O)Nc2cccc(-n3nnnc3C(C)C)n2)cc1-c1cnn(C(C)C)c1
2. Cc1cc(F)c(C(=O)Nc2cccc3c2OCCn2cnnc2-3)cc1-n1cnc(C2CC2)c1
3. COCCN1Cc2cc(F)c(C(=O)Nc3cccc(-c4nncn4C(C)C)n3)cc2S1(=O)=O
4. C[C@H]1CN(c2cnc(C(=O)Nc3cccc4c3OCCn3nnnc3-4)cc2-n2cnc(C3CC3)c2)CCO1
5. CC(C)n1cnnc1-c1cccc(NC(=O)c2ccc3ccc(N4CCN(C(C)(C)C)CC4)nc3c2)n1
6. Cc1cc2c(cc1OC(C)C)C(=O)N(c1cccc(-c3nnnn3[C@H](C)CO)n1)C2
7. CCN(CC)c1nc2ccc(C(=O)Nc3cccc(-c4nncn4C(C)C)n3)cc2s1
8. Cc1cc(F)c(C(=O)Nc2cccc(-c3nnnn3[C@H](C)CO)n2)cc1-c1cnn(C(C)(C)C)c1

Return:
1. 8.00 to 9.00
2. 8.07
3. 7.00 to 8.00
4. 8.22
5. < 6.00
6. 8.00 to 9.00
7. 7.00 to 8.00
8. 8.00 to 9.00

# batch size: 7; output pIC50 per entry
1. CC(C)n1cnnc1-c1cccc(NC(=O)c2cc3sc(C4CC4)nc3cn2)n1
2. COc1cc(C)c(-c2ccn(C(C)C)n2)cc1C(=O)Nc1cccc(-c2nnnn2C(C)C)n1
3. Cc1cc(F)c(C(=O)Nc2cccc3c2O[C@@H](C)Cn2cnnc2-3)cc1-n1cnc(C2CC2)c1
4. O=C(Nc1cccc2c1OCCn1nnnc1-2)c1cc(-n2cnc(C3CC3)c2)ccn1
5. CONC(=O)N1CCc2cc(OC)c(C(=O)Nc3cccc(-c4nnnn4[C@H](C)CO)n3)cc2C1
6. CC(C)n1cnnc1-c1cccc(NC(=O)c2cc3c(cn2)CCN(S(=O)(=O)N(C)C)C3)n1
7. CC(C)n1cnnc1-c1cccc(NC(=O)c2ccc3nc(N4CCCC4)sc3c2)n1

Return:
1: 7.00 to 8.00; 2: 8.00 to 9.00; 3: 8.60; 4: 8.41; 5: > 8.90; 6: 7.00 to 8.00; 7: 6.00 to 7.00

# batch size: 6; output pIC50 per entry
1. CC(C)n1nnnc1-c1nc(NC(=O)c2cc(-c3cnn(C4CC4)c3)c(F)cn2)cs1
2. COCCN1Cc2cc(F)c(C(=O)Nc3cccc(-c4nnnn4[C@H](C)CO)n3)cc2S1(=O)=O
3. CC(C)n1nnnc1-c1cccc(NC(=O)c2cc3c(cc2F)CCN(C(=O)N2CCSCC2)C3)n1
4. COc1cc2c(cc1C(=O)Nc1cccc(-c3nnnn3[C@H](C)CO)n1)CN(C(=O)N1CCOCC1)CC2
5. CC(C)Oc1cc2c(cc1C(=O)Nc1cccc(-c3nnnn3[C@H](C)CO)n1)S(=O)(=O)N(C(C)C)C2
6. COc1cc2c(cc1C(=O)Nc1cccc(-c3nnnn3[C@H](C)CO)n1)CN(c1ncccn1)CC2

Return:
1. 7.00 to 8.00
2. > 8.82
3. 7.00 to 8.00
4. > 8.90
5. 7.00 to 8.00
6. 8.00 to 8.90

# batch size: 2; output pIC50 per entry
1. O=c1c2ccccc2[nH]n1-c1cccc(-c2nncn2C2CC2)n1
2. CCNS(=O)(=O)N1CCc2cc(F)c(C(=O)Nc3cccc(-c4nncn4C(C)C)n3)cc2C1

Return:
5.00 to 6.00
8.00 to 9.00
